- assayed system: EphB3 (receptor of Table 1)
- test description: EphB receptor specificity panel (% binding)
Provide the recorded % Binding for the entries that follow.
Please reply with the bare figure in % and do not write the unit itself.

I would be grateful if you could share the reported % Binding for SHVGPIMRAWAP (Panned on EphB4) [SHVGPIMRAWAP peptide (SEQ ID NO:28)] .
2

Same lookup for SHWPISPYSLLS (Panned on EphB2) [SHWPISPYSLLS peptide (SEQ ID NO:14)] , please.
9

Same lookup for GPVHRAWEPTSH (Panned on EphB4) [GPVHRAWEPTSH peptide (SEQ ID NO:29)] , please.
16

Same lookup for EFFTWRPTYYGI (Panned on EphB4) [EFFTWRPTYYGI peptide (SEQ ID NO:23)] , please.
29

Same lookup for DHNHNLYNPWRL (Panned on EphB4) [DHNHNLYNPWRL peptide (SEQ ID NO:21)] , please.
9

Same lookup for EWLSPNLAPSVR (Panned on EphB1; Footnote e: biotinylated and non-biotinylated peptides gave the same IC50) [EWLSPNLAPSVR peptide (SEQ ID NO:1)] , please.
1

Same lookup for GPVSKAWQETET (Panned on EphB4) [GPVSKAWQETET peptide (SEQ ID NO:31)] , please.
14

Same lookup for DALNDWLLFRPW (Panned on EphB4) [DALNDWLLFRPW peptide (SEQ ID NO:20)] , please.
10
